Tested target: Ba/F3-FGFR4-transfected cells (Homo sapiens)
Sequence (P22455 whole entry, change not shown): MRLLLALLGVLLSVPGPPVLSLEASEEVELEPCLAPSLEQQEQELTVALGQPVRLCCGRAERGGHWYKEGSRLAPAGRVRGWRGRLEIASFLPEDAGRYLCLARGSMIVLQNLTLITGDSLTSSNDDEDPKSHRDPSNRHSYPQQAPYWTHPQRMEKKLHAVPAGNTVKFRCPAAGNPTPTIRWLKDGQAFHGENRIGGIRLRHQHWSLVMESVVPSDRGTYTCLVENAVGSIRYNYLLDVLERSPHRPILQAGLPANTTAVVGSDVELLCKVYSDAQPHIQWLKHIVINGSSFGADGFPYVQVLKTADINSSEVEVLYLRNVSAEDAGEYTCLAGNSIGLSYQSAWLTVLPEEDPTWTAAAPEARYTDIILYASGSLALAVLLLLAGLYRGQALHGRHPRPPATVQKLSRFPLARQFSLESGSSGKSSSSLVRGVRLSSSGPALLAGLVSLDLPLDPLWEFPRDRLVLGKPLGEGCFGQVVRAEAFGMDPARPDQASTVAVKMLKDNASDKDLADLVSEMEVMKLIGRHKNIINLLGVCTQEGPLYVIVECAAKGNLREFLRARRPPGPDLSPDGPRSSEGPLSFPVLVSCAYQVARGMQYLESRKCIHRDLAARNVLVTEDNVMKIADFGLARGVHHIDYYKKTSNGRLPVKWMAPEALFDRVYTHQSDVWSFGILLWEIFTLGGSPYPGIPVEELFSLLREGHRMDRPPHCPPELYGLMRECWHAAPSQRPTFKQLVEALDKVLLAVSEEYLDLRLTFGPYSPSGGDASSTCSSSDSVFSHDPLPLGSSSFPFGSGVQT
Assay details: Ba/F3-FGFR4 cellular proliferation assay, Alamar Blue
Format: cell-based
Method: Ba/F3-FGFR4 (Cellular Proliferation Assay) In a 384 well plate, 100 nl of compound dilution in DMSO was sprayed before adding 50 μl cell culture medium (phenol red free RPMI-1640, 10% FBS, 2 mM L-Glutamine and 50 μg/ml Gentamycin) containing 20000 cells per well of Ba/F3-FGFR4-transfected cells. Cells were put in an incubator at 37° C. and 5% CO2. […]
Record form. Attribute: BAF3-FGFR4 pIC50. Fill in for each entry.

Sample COc1cc(OC)cc(N(CC2CC2)c2ccc3ncc(-c4cccn4C)nc3c2)c1 [Compound 103] — what was its BAF3-FGFR4 pIC50?
<5

Given the entry COc1cc(OC)cc(N(CC2CC2)c2ccc3ncc(-c4cn(CCO)nn4)nc3c2)c1 [Compound 40] , report its measured BAF3-FGFR4 pIC50.
~5.0

Could you share which BAF3-FGFR4 pIC50 value was measured for COc1cc(OC)cc(N(CC2CC2)c2ccc3ncc(C(=O)Nc4cncn4C)nc3c2)c1 [Compound 27] ?
<5

---

Please respond with reported melting point for every item in the list.
Report the figure in °C without appending any unit label.

melting point lookup needed for COc1cc(OC)cc(N(CCO)c2ccc3ncc(/C(C)=N/OC(C)(C)C)nc3c2)c1 , thanks.
147

What value of melting point has been recorded for this entry: COc1cc(OC)cc(N(CCO)c2ccc3ncc(-c4ccc(N5CCOCC5)nc4)nc3c2)c1
193

Value lookup for melting point; key = COc1cc(OC)cc(N(CCNC(C)C)c2ccc3ncc(C(=O)NCCCN4CCCCC4)nc3c2)c1
121

# get_value(readout='melting point', item= COc1cc(OC)cc(N(CC2CO2)c2ccc3ncc(-c4ccc(N)nc4)nc3c2)c1 (centres unmarked) )
169

For COc1cc(OC)cc(N(CCCO)c2ccc3ncc(-c4ccnc(NC(=O)OC(C)(C)C)c4)nc3c2)c1 , what is its reported melting point?
213

---

Tested target: Ba/F3-FGFR3-transfected cells (Homo sapiens, UniProt P22607)
Sequence (P22607 whole entry, change not shown): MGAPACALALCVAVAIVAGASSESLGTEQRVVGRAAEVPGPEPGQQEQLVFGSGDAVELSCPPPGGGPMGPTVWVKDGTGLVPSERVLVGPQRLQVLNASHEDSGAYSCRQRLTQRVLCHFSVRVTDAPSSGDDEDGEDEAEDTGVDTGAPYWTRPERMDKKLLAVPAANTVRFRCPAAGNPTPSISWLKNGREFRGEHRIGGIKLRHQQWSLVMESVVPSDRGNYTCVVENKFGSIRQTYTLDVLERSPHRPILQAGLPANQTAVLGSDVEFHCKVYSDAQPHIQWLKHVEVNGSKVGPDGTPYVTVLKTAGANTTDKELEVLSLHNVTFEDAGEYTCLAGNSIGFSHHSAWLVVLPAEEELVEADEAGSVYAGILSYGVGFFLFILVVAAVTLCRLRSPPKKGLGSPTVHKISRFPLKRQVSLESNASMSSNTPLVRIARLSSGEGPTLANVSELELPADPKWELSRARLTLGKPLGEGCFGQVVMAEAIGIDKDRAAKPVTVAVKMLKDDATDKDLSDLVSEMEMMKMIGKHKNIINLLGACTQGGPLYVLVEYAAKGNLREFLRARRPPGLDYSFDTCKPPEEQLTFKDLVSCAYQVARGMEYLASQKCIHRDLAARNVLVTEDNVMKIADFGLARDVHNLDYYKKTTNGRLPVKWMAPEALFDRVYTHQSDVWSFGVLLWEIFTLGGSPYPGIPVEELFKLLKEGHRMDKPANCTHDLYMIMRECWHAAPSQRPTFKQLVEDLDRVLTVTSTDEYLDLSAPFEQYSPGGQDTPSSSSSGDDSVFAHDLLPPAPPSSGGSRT
Assay details: Ba/F3-FGFR3 (minus IL3) cellular proliferation assay, Alamar Blue
Assay type: cell-based
Stated conditions: minus IL3, 384 well
Please respond with reported BAF3-FGFR 3 (MIN IL3) 384 well pIC50 for every item in the list.

Entry COc1cc(OC)cc(N(CC2CC2)c2ccc3ncc(-c4nnn(C)n4)nc3c2)c1 [Compound 82] : reported BAF3-FGFR 3 (MIN IL3) 384 well pIC50 = ?
<5

State the recorded BAF3-FGFR 3 (MIN IL3) 384 well pIC50 for this entry: COc1cc(OC)cc(N(CC2CC2)c2ccc3ncc(-n4cncn4)nc3c2)c1 [Compound 50]
<5

Item under review: COc1cc(OC)cc(N(CC2CC2)c2ccc3ncc(C(=O)NCc4ccc(F)cc4)nc3c2)c1 [Compound 101] . Reported BAF3-FGFR 3 (MIN IL3) 384 well pIC50?
<5

Requested read-out: BAF3-FGFR 3 (MIN IL3) 384 well pIC50. Entry: COc1cc(OC)cc(N(CCNC(C)C)c2ccc3ncc(-c4ccncc4)nc3c2)c1 [Compound 12]
~7.03

For the molecule COc1cc(OC)cc(N(CCCNCC(F)(F)F)c2ccc3ncc(-c4ccc(N(C)C(=O)OC(C)(C)C)nc4)nc3c2)c1 [Compound 127] , what BAF3-FGFR 3 (MIN IL3) 384 well pIC50 is on record?
<5

Requested read-out: BAF3-FGFR 3 (MIN IL3) 384 well pIC50. Entry: COc1cc(OC)cc(N(CC2CC2)c2ccc3ncc(-c4cnco4)nc3c2)c1 [Compound 55]
~5.25

Which BAF3-FGFR 3 (MIN IL3) 384 well pIC50 is reported for this molecule? COc1cc(OC)cc(N(CCNC(C)C)c2ccc3ncc(-c4ccn[nH]4)nc3c2)c1 [Compound 189]
~7.1

Looking for the measured BAF3-FGFR 3 (MIN IL3) 384 well pIC50 of COc1cc(OC)cc(N(CC2CC2)c2ccc3ncc(N4CCN(C)CC4)nc3c2)c1 [Compound 64] , can you help?
<5

So what does the record say about BAF3-FGFR 3 (MIN IL3) 384 well pIC50 for COc1cc(OC)cc(N(CCCO)c2ccc3ncc(-c4ccc(N5CCOCC5)nc4)nc3c2)c1 [Compound 124] ?
~6.64

---

Could you please report measured IC50 for the items listed next?
Tested target: FGFR4 (h) (Homo sapiens, UniProt P22455)
Assay details: FGFR4 (enzymatic assay), TR-FRET
Type: biochemical
Stated conditions: read-out: FGFR 4 pIC50 (converted)

Which IC50 reading was recorded for the compound COc1cc(OC)cc(N(CCCO)c2ccc3ncc(-c4ccnc(-c5ccnc(Cl)c5)c4)nc3c2)c1 ?
> 1000 nM

Given COc1cc(OC)cc(N(CC2CC2)c2ccc3ncc(-c4ccnc(N5CCOCC5)c4)nc3c2)c1 , state its recorded IC50.
> 10000 nM

Requested field: IC50. Item: COc1cc(OC)cc(N(CCCO)c2ccc3ncc(-c4ccnc(NC(=O)OC(C)(C)C)c4)nc3c2)c1
> 1000 nM

Would you kindly share the measured IC50 for COc1cc(OC)cc(N(CCNC(C)C)c2ccc3ncc(C(=O)N4CCN(C)CC4)nc3c2)c1 ?
> 1000 nM

---

Tested target: Ba/F3-Flt3-transfected cells (Homo sapiens, UniProt P36888, cells depend on it, form not given)
Sequence (P36888 1-993): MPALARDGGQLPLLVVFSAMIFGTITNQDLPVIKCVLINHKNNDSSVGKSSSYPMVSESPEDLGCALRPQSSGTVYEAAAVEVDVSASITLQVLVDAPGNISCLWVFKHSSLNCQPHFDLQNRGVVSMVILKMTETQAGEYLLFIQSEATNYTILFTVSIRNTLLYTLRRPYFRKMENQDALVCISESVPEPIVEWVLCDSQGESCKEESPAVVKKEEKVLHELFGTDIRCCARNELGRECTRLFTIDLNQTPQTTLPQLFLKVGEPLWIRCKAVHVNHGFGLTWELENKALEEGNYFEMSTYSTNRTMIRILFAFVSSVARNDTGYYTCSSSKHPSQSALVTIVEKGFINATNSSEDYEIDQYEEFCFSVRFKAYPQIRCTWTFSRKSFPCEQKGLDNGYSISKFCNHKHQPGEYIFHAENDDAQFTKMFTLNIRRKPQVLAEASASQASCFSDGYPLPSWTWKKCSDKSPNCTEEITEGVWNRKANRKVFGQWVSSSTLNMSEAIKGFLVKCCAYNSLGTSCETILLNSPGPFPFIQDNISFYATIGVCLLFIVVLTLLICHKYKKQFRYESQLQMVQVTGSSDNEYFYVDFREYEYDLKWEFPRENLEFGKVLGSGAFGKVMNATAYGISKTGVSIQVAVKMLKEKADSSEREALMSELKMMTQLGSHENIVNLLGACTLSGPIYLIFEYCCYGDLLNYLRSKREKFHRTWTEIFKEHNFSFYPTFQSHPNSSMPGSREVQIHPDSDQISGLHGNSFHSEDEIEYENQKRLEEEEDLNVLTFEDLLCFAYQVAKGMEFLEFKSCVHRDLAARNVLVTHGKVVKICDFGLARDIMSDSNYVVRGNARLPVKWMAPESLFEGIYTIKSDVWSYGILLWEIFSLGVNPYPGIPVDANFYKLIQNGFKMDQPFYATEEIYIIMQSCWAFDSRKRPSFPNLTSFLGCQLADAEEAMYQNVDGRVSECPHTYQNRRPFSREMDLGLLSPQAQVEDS
Assay details: Ba/F3-Flt3 (minus IL3) cellular proliferation assay, Alamar Blue
Type: cell-based
Stated conditions: minus IL3
I'd be grateful if you could share measured BAF3-FLT3 (MIN IL3) 96 well pIC50 for these entries.

What does the record list as BAF3-FLT3 (MIN IL3) 96 well pIC50 for COc1cc(OC)cc(N(CC2CC2)c2ccc3ncc(-c4cccc(N5CCOCC5)c4)nc3c2)c1 [Compound 92] ?
<5

Entry COc1cc(OC)cc(N(CC2CC2)c2ccc3ncc(NC(=O)c4ccc(F)cc4)nc3c2)c1 [Compound 28] has what BAF3-FLT3 (MIN IL3) 96 well pIC50?
<5

Please look up its BAF3-FLT3 (MIN IL3) 96 well pIC50: COc1cc(OC)cc(N(CC2CC2)c2ccc3ncc(-c4ccc(N)nc4)nc3c2)c1 [Compound 94]
<5

Name the recorded BAF3-FLT3 (MIN IL3) 96 well pIC50 for COc1cc(OC)cc(N(CC2CC2)c2ccc3ncc(-c4cn(C)nn4)nc3c2)c1 [Compound 71] .
<5

Could you tell me which BAF3-FLT3 (MIN IL3) 96 well pIC50 is on file for COc1cc(OC)cc(N(CC2CC2)c2ccc3ncc(-n4ccc(C)n4)nc3c2)c1 [Compound 31] ?
<5

I am curious: what BAF3-FLT3 (MIN IL3) 96 well pIC50 value has been reported for COc1cc(OC)cc(N(CC2CC2)c2ccc3ncc(C(=O)NCCN4CCOCC4)nc3c2)c1 [Compound 96] ?
<5

I'd like to know its BAF3-FLT3 (MIN IL3) 96 well pIC50. The compound in question is COc1cc(OC)cc(N(CC2CC2)c2ccc3ncc(C(=O)N4CCC4)nc3c2)c1 [Compound 93]
<5

Tell me the measured BAF3-FLT3 (MIN IL3) 96 well pIC50 of COc1cc(OC)cc(N(CC2CC2)c2ccc3ncc(-c4ccnn4C)nc3c2)c1 [Compound 18] , please.
<5

Need BAF3-FLT3 (MIN IL3) 96 well pIC50, item COc1cc(OC)cc(N(CC2CC2)c2ccc3ncc(-c4nnnn4C)nc3c2)c1 [Compound 83]
<5

What value of BAF3-FLT3 (MIN IL3) 96 well pIC50 has been recorded for this entry: COc1cc(OC)cc(N(CC2CC2)c2ccc3ncc(-c4ccn(C)c4)nc3c2)c1 [Compound 73]
5.31

Looking for the measured BAF3-FLT3 (MIN IL3) 96 well pIC50 of COc1cc(OC)cc(N(CC2CC2)c2ccc3ncc(-c4ccn(CCO)c4)nc3c2)c1 [Compound 56] , can you help?
<5

Looking for the measured BAF3-FLT3 (MIN IL3) 96 well pIC50 of COc1cc(OC)cc(N(CC2CC2)c2ccc3ncc(-c4c[nH]cn4)nc3c2)c1 [Compound 39] , can you help?
<5
